Each recorded value in this set is attributed to paper PMC7700423.

- ASSAY OVERVIEW: Pharmacokinetics of BUP and HBUP after intravenous BUP in rats
- Type: in vivo, rat
- CONDITIONS: male, Sprague-Dawley, rat, plasma, iv, 5 mg/kg, i.v. 5 mg/kg BUP, control rats
READOUT NAME: half-life (min)
Dear colleague, please return just the value in min, with no unit written.

Value of half-life reported for the compound CC(NC(C)(C)C)C(=O)c1cccc(Cl)c1 (stereo not shown) is 155
